Recorded Recovery, Total fraction of input, one value per entry.
molecular target: Human Neutrophil Elastase (human, UniProt P08246); assay: pH elution of display phage from hNE beads, abbreviated protocol

| binder | result |
| --- | --- |
| MUTQE display phage (designed binder) RPDFCQLGYSAGPCVAMFPRYFYNGTSMACETFVYGGCMGNGNNFVTEKDCLQTCRGA | 0.0022 fraction of input |

Ask: Which Recovery, Total fraction of input reading was recorded for the binder MUTP1 display phage (designed binder) RPDFCQLGYSAGPCIGMFSRYFYNGTSMACETFQYGGCMGNGNNFVTEKDCLQTCRGA ?
Result: 0.0012 fraction of input

Ask: Which Recovery, Total fraction of input reading was recorded for the binder MA-BITI-E7-141 display phage (designed binder) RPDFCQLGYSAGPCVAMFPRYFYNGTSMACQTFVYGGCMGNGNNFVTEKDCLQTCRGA ?
Result: 0.0026 fraction of input

Ask: Which Recovery, Total fraction of input reading was recorded for the binder AMINO2 display phage (designed binder) KPDSCQLGYSAGPCVAMFPRYFYNGTSMACETFQYGGCMGNGNNFVTEKDCLQTCRGA ?
Result: 0.00031 fraction of input
